Biological target: hSULT1A3 (Homo sapiens)
Construct: 6-histidine tag (N); TEV site (N); made in house; host or cells: Escherichia coli BL21 (DE3), pET29a(+)
Sequence (P0DMM9 whole entry): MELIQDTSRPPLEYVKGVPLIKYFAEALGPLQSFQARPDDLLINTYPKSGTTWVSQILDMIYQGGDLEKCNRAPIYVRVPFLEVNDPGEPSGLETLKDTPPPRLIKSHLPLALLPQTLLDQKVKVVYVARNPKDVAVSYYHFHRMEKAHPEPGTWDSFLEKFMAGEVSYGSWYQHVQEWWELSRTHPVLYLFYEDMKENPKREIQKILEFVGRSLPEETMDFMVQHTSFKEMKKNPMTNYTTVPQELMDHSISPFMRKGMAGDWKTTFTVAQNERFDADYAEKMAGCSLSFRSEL
Assay: Fluorescence-based microplate inhibition assay, hSULT1A3-catalyzed HN-241 4-O-sulfation
Assay type: biochemical
Details: test compound 10 μM, HN-241 10 μM, 15 min
ENDPOINT_LABEL: Residue activity (%) hSULT1A3
Numeric answer plus unit only.

These recorded examples may help you get a feel for the data.
C=C(CCC=C(C)C)[C@H]1CC[C@]2(C)[C@@H]1[C@H](O)C[C@@H]1[C@@]3(C)CC[C@H](O[C@@H]4O[C@H](CO)[C@@H](O)[C@H](O)[C@H]4O)C(C)(C)[C@@H]3CC[C@]12C [Ginsenoside Rk2]; 94.83%
O=c1cc(-c2ccccc2)oc2ccc(O)c(O)c12 [5,6-Dihydroxy-2-phenylchromen-4-one]; 68.42%
CC(C)=CCc1c(-c2ccc(O)cc2O)oc2c(CC=C(C)C)c(O)cc(O)c2c1=O; 70.86%
COc1cc2c(c(O)c1OC)C(=O)c1c(cc(C)c(O)c1OC)C2=O; 61.63%
COc1cc(-c2oc3cc(O)cc(O)c3c(=O)c2O[C@@H]2O[C@H](CO[C@@H]3O[C@@H](C)[C@H](O)[C@@H](O)[C@H]3O)[C@@H](O)[C@H](O)[C@H]2O)ccc1O [Narcissoside]; 60.08%
O=C1CCC[C@@H]2[C@H]3CCC[N@+]4([O-])CCC[C@@H](CN12)[C@@H]34; 100.34%
COC[C@]12CN(C)[C@@H]3[C@@H]4[C@H](OC)[C@H]1[C@@]3([C@@H](OC)C[C@H]2O)[C@@H]1C[C@@]2(O)[C@H](OC(=O)c3ccccc3)[C@@H]1[C@]4(OC(C)=O)[C@@H](O)[C@@H]2OC; 110.31%
COc1cc(OC)c(CCC(=O)c2ccc(O)cc2)c(OC)c1; 71.91%

Respond only with Residue activity (%) hSULT1A3 recorded for COc1ccc(-c2coc3cc(O[C@@H]4O[C@H](CO)[C@@H](O)[C@H](O)[C@H]4O)ccc3c2=O)cc1O [Calycosin-7-O-β-D-glucoside]
54.16%

Respond only with Residue activity (%) hSULT1A3 recorded for CC(C)=CC/C=C(/C)[C@H]1CC[C@]2(C)[C@@H]1[C@H](O)C[C@@H]1[C@@]3(C)CC[C@H](O)C(C)(C)[C@@H]3[C@@H](O[C@@H]3O[C@H](CO)[C@@H](O)[C@H](O)[C@H]3O[C@@H]3O[C@@H](C)[C@H](O)[C@@H](O)[C@H]3O)C[C@]12C [Ginsenoside F4]
99.83%

Respond only with Residue activity (%) hSULT1A3 recorded for Cc1c2[n+](cc3cc4c(cc13)OCO4)CCc1cc3c(cc1-2)OCO3
125.56%

Respond only with Residue activity (%) hSULT1A3 recorded for COc1ccc(-c2oc3c(CC=C(C)C)c(O[C@@H]4O[C@H](CO)[C@@H](O)[C@H](O)[C@H]4O)cc(O)c3c(=O)c2O[C@@H]2O[C@@H](C)[C@H](O)[C@@H](O)[C@H]2O[C@@H]2O[C@@H](C)[C@H](O)[C@@H](O)[C@H]2O)cc1 [Epimedin C]
107.48%

Respond only with Residue activity (%) hSULT1A3 recorded for COc1ccc(-c2oc3c(CC=C(C)C)c(O[C@@H]4O[C@H](CO)[C@@H](O)[C@H](O)[C@H]4O)cc(O)c3c(=O)c2O)cc1 [Icariside I]
104.97%

Respond only with Residue activity (%) hSULT1A3 recorded for C=C(CCC=C(C)C)[C@H]1CC[C@]2(C)[C@@H]1[C@H](O)C[C@@H]1[C@@]3(C)CC[C@H](O)C(C)(C)[C@@H]3[C@@H](O[C@@H]3O[C@H](CO)[C@@H](O)[C@H](O)[C@H]3O[C@@H]3O[C@@H](C)[C@H](O)[C@@H](O)[C@H]3O)C[C@]12C [Ginsenoside Rg6]
124.68%

Respond only with Residue activity (%) hSULT1A3 recorded for O=C1C=CC(=O)c2cc3ccccc3cc21
94.23%

Respond only with Residue activity (%) hSULT1A3 recorded for COC(=O)/C=C/c1ccc(O)c(O)c1 [Methyl caffeate acid]
44.99%
